# credit: ChEMBL document CHEMBL1201862

tested on: SR; assay: NCI tumour cell line growth inhibition, 48 h
Calls of active or inactive are those of the source. No stated cut-off is given here; in the data, active = GI50 up to about 1.1 µM and inactive = higher.
Measured GI50, listed per entry for reference.
quantity.measured: GI50

O=C1c2ccccc2C(=O)c2sc(Nc3ccc(Cl)cc3)nc21    1.86 µM (inactive)
O=c1oc2ccc(Cl)cc2cc1-c1cn2ccccc2n1    32.9 µM (inactive)
S=c1sc2sc(=S)sc2s1    29.1 µM (inactive)
O=C(N/N=C/c1cc(Cl)cc(Cl)c1O)c1ccccc1O    0.281 µM (active)
CSc1nc(SC)c2c(CN=[N+]=[N-])c(Br)n(Cc3ccccc3)c2n1    26 µM (inactive)
Cc1ccc(NC(=O)c2cc(S(=O)(=O)Nc3n[nH]c(=O)[nH]3)c(SSc3cc(Cl)c(C(=O)Nc4ccc(C)cc4)cc3S(=O)(=O)Nc3n[nH]c(=O)[nH]3)cc2Cl)cc1    > 100 µM (inactive)
Clc1cccc(N2CCN(CCN3CCc4c([nH]c5ccccc45)C3c3cccnc3)CC2)c1 (stereo not given)    25.7 µM (inactive)
Cc1ccc(S(=O)(=O)OCC/C(=C\[Si](C)(C)C)c2ccccc2)cc1    24 µM (inactive)
COc1ccc(OC)c(C2Cc3cnc4nc(N)nc(N)c4c3C2)c1 (stereo not given)    19.4 µM (inactive)
Brc1ccc(C2=NCSC(c3ccc(Br)cc3)=N2)cc1    22.2 µM (inactive)
